Cited source: paper PMC6677016

- target-or-system: p-Hydroxymandelate oxidase (Hmo) Y128F mutant (Amycolatopsis orientalis, UniProt O52792, Y128F)
- Construct: N-terminally His6-tagged protein
- Sequence (O52792 1-357 Y128F): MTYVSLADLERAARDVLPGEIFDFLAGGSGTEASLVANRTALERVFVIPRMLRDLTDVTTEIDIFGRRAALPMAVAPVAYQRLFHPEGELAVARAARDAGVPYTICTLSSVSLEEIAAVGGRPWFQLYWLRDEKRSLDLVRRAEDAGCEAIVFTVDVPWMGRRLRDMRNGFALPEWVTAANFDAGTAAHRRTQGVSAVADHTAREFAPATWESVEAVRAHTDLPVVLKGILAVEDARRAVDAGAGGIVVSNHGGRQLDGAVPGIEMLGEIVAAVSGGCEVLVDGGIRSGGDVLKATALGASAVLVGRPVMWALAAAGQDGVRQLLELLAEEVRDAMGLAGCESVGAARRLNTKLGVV
- measurement-protocol: crystal structure ([…] Å) and ITC
property-name: Kd (µM)
The answer is to be given in µM; state only the numeric part.

// sample O=C(O)C(=O)c1ccccc1 [BF, benzoylformate] , its Kd was 1400
